Below: a set of entries, each annotated with reported apparent Kd (screen).
Target: T1, TNFR1 (Homo sapiens, UniProt P19438)
T1 chain: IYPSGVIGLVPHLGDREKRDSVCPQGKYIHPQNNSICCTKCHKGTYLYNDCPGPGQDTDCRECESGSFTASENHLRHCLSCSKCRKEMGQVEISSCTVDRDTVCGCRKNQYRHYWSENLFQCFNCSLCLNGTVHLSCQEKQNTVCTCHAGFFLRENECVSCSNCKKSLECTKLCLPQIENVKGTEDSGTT
Test: yeast display SC50
ENDPOINT: apparent Kd (screen)

1) K69D (designed binder) SMEEEVEKAAKEYEKKKKEAIEKHLEKLKAKDKEAAERFLKELEEAAKEYAKDEAKTMSEEEAKRRAKDYKEKVLLSELSEEEQKEIKEAEEKLVRTILKYVEEAAK
1.4 nM
2) E104N (designed binder) SMEEEVEKAAKEYEKKKKEAIEKHLEKLKAKDKEAAERFLKELEEAAKEYAKDEAKTMSEEEAKRRAKKYKEKVLLSELSEEEQKEIKEAEEKLVRTILKYVENAAK
0.718 nM
3) A106D (designed binder) SMEEEVEKAAKEYEKKKKEAIEKHLEKLKAKDKEAAERFLKELEEAAKEYAKDEAKTMSEEEAKRRAKKYKEKVLLSELSEEEQKEIKEAEEKLVRTILKYVEEADK
0.79 nM
4) E72H (designed binder) SMEEEVEKAAKEYEKKKKEAIEKHLEKLKAKDKEAAERFLKELEEAAKEYAKDEAKTMSEEEAKRRAKKYKHKVLLSELSEEEQKEIKEAEEKLVRTILKYVEEAAK
2.73 nM
5) A9V (designed binder) SMEEEVEKVAKEYEKKKKEAIEKHLEKLKAKDKEAAERFLKELEEAAKEYAKDEAKTMSEEEAKRRAKKYKEKVLLSELSEEEQKEIKEAEEKLVRTILKYVEEAAK
0.49 nM
6) K16R (designed binder) SMEEEVEKAAKEYEKRKKEAIEKHLEKLKAKDKEAAERFLKELEEAAKEYAKDEAKTMSEEEAKRRAKKYKEKVLLSELSEEEQKEIKEAEEKLVRTILKYVEEAAK
1.4 nM
7) E83G (designed binder) SMEEEVEKAAKEYEKKKKEAIEKHLEKLKAKDKEAAERFLKELEEAAKEYAKDEAKTMSEEEAKRRAKKYKEKVLLSELSEEGQKEIKEAEEKLVRTILKYVEEAAK
1.69 nM
8) K33S (designed binder) SMEEEVEKAAKEYEKKKKEAIEKHLEKLKAKDSEAAERFLKELEEAAKEYAKDEAKTMSEEEAKRRAKKYKEKVLLSELSEEEQKEIKEAEEKLVRTILKYVEEAAK
0.869 nM
9) L25S (designed binder) SMEEEVEKAAKEYEKKKKEAIEKHSEKLKAKDKEAAERFLKELEEAAKEYAKDEAKTMSEEEAKRRAKKYKEKVLLSELSEEEQKEIKEAEEKLVRTILKYVEEAAK
1.05 nM
10) R66S (designed binder) SMEEEVEKAAKEYEKKKKEAIEKHLEKLKAKDKEAAERFLKELEEAAKEYAKDEAKTMSEEEAKRSAKKYKEKVLLSELSEEEQKEIKEAEEKLVRTILKYVEEAAK
7.07 nM
11) Y50W (designed binder) SMEEEVEKAAKEYEKKKKEAIEKHLEKLKAKDKEAAERFLKELEEAAKEWAKDEAKTMSEEEAKRRAKKYKEKVLLSELSEEEQKEIKEAEEKLVRTILKYVEEAAK
7.07 nM
12) S59C (designed binder) SMEEEVEKAAKEYEKKKKEAIEKHLEKLKAKDKEAAERFLKELEEAAKEYAKDEAKTMCEEEAKRRAKKYKEKVLLSELSEEEQKEIKEAEEKLVRTILKYVEEAAK
2.73 nM
13) K93L (designed binder) SMEEEVEKAAKEYEKKKKEAIEKHLEKLKAKDKEAAERFLKELEEAAKEYAKDEAKTMSEEEAKRRAKKYKEKVLLSELSEEEQKEIKEAEELLVRTILKYVEEAAK
1.05 nM
14) A47S (designed binder) SMEEEVEKAAKEYEKKKKEAIEKHLEKLKAKDKEAAERFLKELEEASKEYAKDEAKTMSEEEAKRRAKKYKEKVLLSELSEEEQKEIKEAEEKLVRTILKYVEEAAK
2.05 nM
15) I21Y (designed binder) SMEEEVEKAAKEYEKKKKEAYEKHLEKLKAKDKEAAERFLKELEEAAKEYAKDEAKTMSEEEAKRRAKKYKEKVLLSELSEEEQKEIKEAEEKLVRTILKYVEEAAK
0.446 nM
16) E4N (designed binder) SMENEVEKAAKEYEKKKKEAIEKHLEKLKAKDKEAAERFLKELEEAAKEYAKDEAKTMSEEEAKRRAKKYKEKVLLSELSEEEQKEIKEAEEKLVRTILKYVEEAAK
0.539 nM
